system: Colon cancer organoid; assay: Identification of compartment-specific drug sensitivities in O20 CRC organoid-stroma F20 CAF co-cultures. Organoid is transduced with Lucferase2-P2A-EGFP lentivirus, fibroblast with Renilla-dsRed lentivirus. Dual-Glo Luciferase assay is used to report viability data.; type: functional, Homo sapiens; design: dose or concentration left out as unconfirmed; conditions: Transduced with Renilla-dsRed lentivirus
Non-standard residues stand in square brackets, D forms with d. Residues, ends and D or L forms follow the SMILES beside them. Arg(Me) = CNC(=N)NCCC[C@H](N)C(=O)O; d3Pal = N[C@H](Cc1cccnc1)C(=O)O; azaGly = NNC(=O)O
endpoint-name: Cell Viability (%)
Answers are plain numbers, in %.

In the examples that follow, each entry is paired with its recorded Cell Viability.
compound | endpoint-name | numeric-value
O=C(c1ccc(C(=O)N2CCC(N3CCCC3)CC2)c(Nc2ccccc2)c1)N1CCC(N2CCCC2)CC1 | Cell Viability | 96.2949
CCN(Cc1ccc(Cl)cc1)c1ncc(C(=O)NCCCN2CCCC2=O)c(NC2CCCC2)n1 | Cell Viability | 104.655
CNC(=O)c1cc(C(=O)N[C@H]2[C@@H]3COC[C@@H]32)cc2c1O[C@H](CF)[C@H]2c1ccccc1 | Cell Viability | 135.509
Cc1cc(CN)cc(C)c1-c1ncn(C)c1-c1ccnc2cc(F)ccc12.Cl | Cell Viability | 87.6481
Cc1c(C(=O)Nc2ccc(Oc3ccnc4[nH]cc(-c5ccccc5)c34)c(F)c2)c(=O)n(-c2ccc(F)cc2)n1C | Cell Viability | 22.9382
CO[C@@H](C)c1c(Nc2ccc([C@@H](N(C)C(=O)C3CCS(=O)(=O)CC3)C(F)(F)F)cc2)cnc2cc(Cl)nn12 | Cell Viability | 108.215
CN([C@@H]1CCc2c(CC(=O)O)c3ccccc3n2C1)S(=O)(=O)c1ccc(F)cc1 | Cell Viability | 109.932
Cc1ccc(C(=O)Nc2cccc(C(F)(F)F)c2)cc1Nc1nc(-c2cccnc2)nc2c1cnn2C | Cell Viability | 123.917
CC[C@@H]1CN(C(=O)NCC(F)(F)F)C[C@@H]1c1cnc2cnc3[nH]ccc3n12 | Cell Viability | 83.5298
Cn1c(C2(NC(=O)c3ccc(NCC4CCCCC4)nc3)CCC2)nc2ccc(/C=C/C(=O)O)cc21 | Cell Viability | 134.723

For each listed entry, give its Cell Viability.
1. C[C@@H]1CCN(C(=O)CC#N)C[C@@H]1N(C)c1ncnc2[nH]ccc12.O=C(O)CC(O)(CC(=O)O)C(=O)O [TOFACITINIB CITRATE]
2. Cn1cnc2c(F)c(Nc3ccc(Br)cc3Cl)c(C(=O)NOCCO)cc21
3. CNC(=N)NCCC[C@H](NC(=O)[C@H](CC(C)C)NC(=O)NNC(=O)[C@H](Cc1ccccc1)NC(=O)[C@H](CO)NC(=O)[C@H](CC(N)=O)NC(=O)[C@@H](Cc1cccnc1)NC(=O)[C@H](N)Cc1ccc(O)cc1)C(=O)NCC(N)=O [KISS1-543] (H-[dY][d3Pal]NSF[azaGly]L[Arg(Me)]G-NH2)
4. CCS(=O)(=O)c1cc2cc(C[C@](O)(CC(C)(C)c3ccc(F)cc3C(N)=O)C(F)(F)F)[nH]c2cn1

Result:
[86.9545, 152.417, 120.489, 287.465]
